- Test system: Staphylococcus aureus
- procedure.details: Antimicrobial activity against Staphylococcus aureus assessed as zone of inhibition at 5 mg/ml
- Assay type: functional
- assay.setup: read-out: IZ
Measured zone of inhibition at 5000 µg/mL accompanies every entry in the list below.

Worked set:
sample_smiles=Cc1ccc2cc(Cn3cc(CSc4nnnn4-c4ccccc4)nn3)c(C)nc2c1 tgt="Staphylococcus aureus" observed_result="11 to 19 mm"
sample_smiles=Cc1nc2ccccc2cc1Cn1cc(CSc2nnnn2-c2ccccc2)nn1 tgt="Staphylococcus aureus" observed_result="11 to 19 mm"
sample_smiles=CCn1cc(C(=O)O)c(=O)c2cc(F)c(N3CCN(C)CC3)cc21 tgt="Staphylococcus aureus" observed_result="28 to 36 mm"

What is its zone of inhibition at 5000 µg/mL for Staphylococcus aureus? Entry: Cc1ccc2nc(C)c(Cn3cc(CSc4nnnn4-c4ccccc4)nn3)cc2c1
11 to 19 mm

====

- System: Pseudomonas aeruginosa
- procedure.details: Antimicrobial activity against Pseudomonas aeruginosa ATCC 27853 after 24 hrs by two-fold broth serial dilution method
- Format: functional
- assay.setup: ATCC 27853, 24 h
readout.name: MIC

Study these solved cases before continuing.
compound="Cc1cc(=O)oc2cc(OCC(O)Cn3cnnn3)cc(OCC(O)Cn3cnnn3)c12 (stereo unspecified)" tgt="Pseudomonas aeruginosa" observed_result="32 to 512 µg/mL"
compound="Cc1cc(=O)oc2cc(OCC(O)Cn3cnnn3)ccc12 (stereo unspecified)" tgt="Pseudomonas aeruginosa" observed_result="8 to 512 µg/mL"
compound="Cc1cc(=O)oc2cc(OCC(O)Cn3nnnc3C)ccc12 (stereo unspecified)" tgt="Pseudomonas aeruginosa" observed_result="4 to 512 µg/mL"
compound=OC(Cn1cncn1)(Cn1cncn1)c1ccc(F)cc1F tgt="Pseudomonas aeruginosa" observed_result="1 to 256 µg/mL"
compound="Cc1cc(=O)oc2cc(OCC(O)Cn3nnnc3C)cc(OCC(O)Cn3nnnc3C)c12 (stereo unspecified)" tgt="Pseudomonas aeruginosa" observed_result="32 to 512 µg/mL"

# query: MIC of entry CCn1cc(C(=O)O)c(=O)c2cc(F)c(N3CCNCC3)cc21
1 to 16 µg/mL

====

MIC reference
- Test system: Bacillus cereus
- procedure.details: Antimicrobial activity against Bacillus cereus
- Format: functional

molecule=O=[N+]([O-])c1cccc(-c2nnnn2-c2nc3ccccc3s2)c1 tgt="Bacillus cereus" observed_result="50 to 100 µg/mL"

What value of MIC has been recorded for this entry: Oc1ccc(-c2nnnn2-c2nc3ccccc3s2)cc1
50 to 100 µg/mL

Then what about the molecule COc1cc(-c2nnnn2-c2nc3ccccc3s2)cc(OC)c1OC ?
50 to 100 µg/mL

Now consider Oc1cccc(-c2nnnn2-c2nc3ccccc3s2)c1 and answer again.
50 to 100 µg/mL

Further, for Clc1ccc(-c2nnnn2-c2nc3ccccc3s2)cc1 ?
50 to 100 µg/mL

Input O=[N+]([O-])c1ccc(-c2nnnn2-c2nc3ccccc3s2)cc1
50 to 100 µg/mL

Now consider N=C(N)Nc1nnn(Cc2cccc(Cn3nnc(C(=N)N)n3)c2)n1 .
30 to 40 µg/mL

Item: CN(C)c1ccc(-c2nnnn2-c2nc3ccccc3s2)cc1
50 to 100 µg/mL

Likewise for Cc1ccc(-c2nnnn2-c2nc3ccccc3s2)cc1 ?
50 to 100 µg/mL

====

- Tested on: Escherichia coli
- procedure.details: Antimicrobial activity against Escherichia coli ATCC 25922 after 48 hrs by NCCLS protocol based method
- Format: functional
- assay.setup: ATCC 25922, 48 h
readout.name: MIC

compound="CCOC(=O)C(C#N)C(c1cc2ccc(C)cc2n2nnnc12)P(=O)(OCC)OCC (stereo not drawn)" observed_result="10 to 20 µg/mL"
compound="CCOC(=O)C(C#N)C(c1cc2ccc(CC)cc2n2nnnc12)P(=O)(OCC)OCC (stereo not drawn)" observed_result="10 to 20 µg/mL"

Would you kindly look at the next entry?
MIC for CCOC(=O)C(C#N)C(c1cc2cc(C)ccc2n2nnnc12)P(=O)(OCC)OCC (stereo not drawn) ?
10 to 20 µg/mL
